# Tested on: NCI-H460
# Procedure Details: NCI tumour cell line growth inhibition, 48 h
Active and inactive are the calls of the source. Rule as the data show it: active = GI50 up to about 1.1 µM and inactive = higher.
Value Type: GI50

What value of measured GI50 is listed for C=CC1(CC)/C(=N\O)C(CC)(CC)C(=O)N1O (configuration not stated) ? > 100 µM (inactive)

What would you report for "CC[n+]1c(/C=C/c2cc(C(=O)OC)n3c2sc2ccccc23)sc2ccccc21" ? 16.2 µM (inactive)

What would you report for "O=c1cc(N2CCCC2)[nH]c(=O)n1Cc1ccccc1" ? > 100 µM (inactive)

What would you report for "O=c1[nH]c(-c2ccccc2)nc2cc(Cl)ccc12" ? > 100 µM (inactive)

---

# System: 786-0
# Procedure Details: NCI tumour cell line growth inhibition, 48 h
Active and inactive are the calls of the source. Cut-off read from the data, not from the text of the source: active = GI50 up to about 1.1 µM and inactive = higher.
Value Type: GI50

What value of measured GI50 is listed for "Cc1cc(Cc2cc(Cc3cc(C)cc(C(C)(C)C)c3O)c(C)cc2C)c(O)c(C(C)(C)C)c1" ? 17.1 µM (inactive)

What would you report for "OC[C@H]1O[C@@H]2O[C@@](COCc3ccccc3)([C@H](OCc3ccccc3)[C@H]2O)[C@@H]1OCc1ccccc1" ? 17 µM (inactive)

What would you report for "O=C(/C=C/c1ccc(Cl)cc1)Oc1ccc(/C=C2\CCCCC2=O)cc1" ? > 100 µM (inactive)

What would you report for CC(C)SC(C)(NC(=O)C1C(C)(C)CCC1(C)C)C(=O)O (stereo not given) ? > 100 µM (inactive)

What would you report for "Cn1c(=O)c2nc(CCNC(=O)c3ccccc3)[nH]c2n(C)c1=O" ? > 100 µM (inactive)

What would you report for "O=C(NNS(=O)(=O)c1ccccc1)c1csc(NC(=S)NC2CCCCC2)n1" ? 15.4 µM (inactive)

What would you report for "CSc1nc(C)c(CCOC(C)=O)c(N=P(c2ccccc2)(c2ccccc2)c2ccccc2)n1" ? > 10 µM (inactive)

What would you report for COC(=O)C1=C(C=O)C2C=CC1C2 (stereo not given) ? > 92.3 µM (inactive)

What would you report for "O=c1cc(N2CCCC2)[nH]c(=O)n1Cc1ccccc1" ? > 100 µM (inactive)

What would you report for CC1CC(C)C2=NOS3=C2C1=NO3 (stereo not given) ? > 100 µM (inactive)

---

# Tested on: MOLT-4
# Procedure Details: NCI tumour cell line growth inhibition, 48 h
Active and inactive are the calls of the source. No stated cut-off is given here; in the data, active = GI50 up to about 1.1 µM and inactive = higher.
Please state which outcome applies, choosing from True = active, False = inactive

Answered examples (4):
Compound	Study System	Class Label
CC(=O)O[C@H]1C(=O)[C@@]2(C)[C@H]([C@H](OC(=O)c3ccco3)[C@]3(O)C[C@H](OC(=O)[C@H](O)[C@@H](NC(=O)c4ccccc4)c4ccccc4)C(C)=C1C3(C)C)[C@]1(OC(C)=O)CO[C@@H]1C[C@@H]2O	MOLT-4	True
CN(C)/N=N/c1nc2c(c(=O)n(C)c(=O)n2C)n1C	MOLT-4	False
C=CCc1cccc2cc(C(N)=O)c(=N)oc12	MOLT-4	False
COc1cc(C[C@H]2c3cc(OC)c(OC)cc3CCN2C)c(Oc2cc3c(cc2OC)-c2c(OC)c(OC)cc4c2[C@H](C3)N(C)CC4)cc1OC [THALICARPINE]	MOLT-4	False

// return assay outcome for "COC(=O)c1c[nH]cc1CCc1c[nH]cc1C(=O)OC" False
